test: blockers of DNA damage checkpoint Chk1 activation – imaging, HeLa, hydroxyurea, phospho-Chk1 antibody, percent positive cells, primary screen (AID 1186); conditions: hydroxyurea-induced phospho-Chk1 immunofluorescence imaging, higher = more signal
This listing pairs compounds with measured z-score.

compound: CCCCCCCCCCC(O)C1C=CC2C(=O)N(c3ccccc3)C(=O)C2N1Nc1ccc([N+](=O)[O-])cc1 (stereo not drawn)
z-score: 0.346

compound: CCOC(=O)C1=CC[C@@H](c2cccc(Cl)c2)N(S(=O)(=O)c2ccc(C)cc2)[C@H]1c1ccc(C#N)cc1
z-score: 0.645

compound: Cn1c2c(c3ccccc31)C(=O)C1NC2C=CC1(C)C(=O)OCc1ccccc1 (stereo not drawn)
z-score: -0.3

compound: COc1cc(CO)cc(I)c1O[C@H]1C=C(C(=O)NCCO)C[C@@H](N(CCc2cccc(F)c2)C(=O)CCC2CCCC2)[C@@H]1O
z-score: 0.624

compound: CCOC(=O)C=Cc1cccc(OC)c1O
z-score: -1.68

compound: COC(=O)[C@@]1(Cc2ccc(OC)cc2)[C@H]2c3cc(C(=O)N(C)C)n(CCSCCO)c3C[C@H]2CN1C(=O)c1ccccc1
z-score: -0.02

compound: C=C(CCCC)C(=O)CC[C@@H](OC(=O)c1ccccc1-c1ccccc1C(=O)O)c1ccc(CO)o1
z-score: 0.629

compound: COc1ccc([Si](C)(C)[C@@H]2[C@@H](CC(=O)N3Cc4ccccc4C[C@H]3CO)O[C@]3(C(=O)N(Cc4cccc(N5C(=O)COc6ccccc65)c4)c4ccccc43)[C@H]2C)cc1
z-score: -0.635

###

system: Inhibin beta A chain (activin A); assay: small molecules binding activin A – biochemical, small-molecule microarray, 635 nm fluorescence scan, primary screen (AID 1107); details: INHBA, higher = more signal;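 further: mouse activin A protein probed at 4.33 µg/mL on printed slides; score merges bound-protein fluorescence near 667 nm with spot signal-to-noise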
This listing pairs compounds with measured composite z-score.
measured-quantity: composite z-score

compound: O=C1OCCC/C=C\[C@H]2OC34C=CCN(CCN5CCOCC5)C(=O)[C@H]3N(CCO)C(=O)[C@@H]4C12 (some centres undefined)
observed-measurement: -0.68

compound: CC(C)C(=C=CC[C@H](O)c1ccccc1OCCO)CCO
observed-measurement: 0.913

compound: CC1CC/C=C\[C@H]2OC34C=CCN(c5ccc6ccccc6c5)C(=O)[C@H]3N(CCCCCO)C(=O)[C@@H]4C2C(=O)O1 (some centres undefined)
observed-measurement: -0.522

compound: COC(=O)[C@@]1(Cc2ccc(F)cc2)[C@H]2c3cc(C(=O)N(C)C)n(Cc4ccccn4)c3C[C@H]2CN1C(=O)c1ccccc1
observed-measurement: 1.24

compound: O=C(NCC(O)CO)[C@@]1(Cc2ccccc2)N=C(c2ccc(OCCCO)cc2)O[C@H]1c1ccccc1 (some centres undefined)
observed-measurement: 0.661

compound: [N-]=[N+]=NCc1ccccc1C[C@]1(C(=O)NCc2ccccc2)COC(c2ccc(OCCCO)cc2)=N1
observed-measurement: 0.743

compound: C=C(CCCC)/C(=C/C[C@H](OC(C)=O)c1ccc(CO)o1)c1cc(C(=O)OC)ccc1OC
observed-measurement: 0.638

compound: CCOC(=O)C[C@H]1[C@H](OC(=O)c2ccc(C(=O)c3ccccc3)cc2)[C@@H](NC(=O)c2ccc3ccccc3n2)c2cc(OCCCO)ccc2N1C(=O)c1ccc2ccccc2n1
observed-measurement: 0.41

compound: COC(=O)[C@@]1(Cc2ccc(F)cc2)[C@H]2c3cc(C(=O)N(C)C)n(CCCNc4ccc(C(F)(F)F)cc4Cl)c3C[C@H]2CN1C(=O)c1ccccc1
observed-measurement: -0.0131

compound: O=C(NCc1ccccc1)[C@@H]1c2ccccc2C(=O)N(C2CCCCC2)[C@H]1c1ccc(CO)cc1
observed-measurement: -0.224

compound: COCCOC(=O)N1C(=O)[C@@]2(c3cc(C#Cc4ccc(OC)cc4)ccc31)[C@H](c1ccc(O)cc1)N1[C@H](c3ccccc3)[C@H](c3ccccc3)OC(=O)[C@H]1[C@@H]2C(=O)N1CCN(c2ncccn2)CC1
observed-measurement: 0.349

compound: C=C(/C(=C/C[C@@H](OC(C)=O)c1ccc(CO)o1)c1cnc2ccccc2c1)C(C)C
observed-measurement: 1.39

compound: C=CCNC(=O)[C@@H]1[C@H]2C(=O)O[C@H](c3ccccc3)[C@H](c3ccccc3)N2[C@H](c2ccccc2OCCO)[C@@]12C(=O)N(C(=O)OCCOC)c1ccc(C#CCC(C(=O)OC)C(=O)OC)cc12
observed-measurement: 1.33

compound: Cc1ccc(S[C@]2(C(=O)NCCCN(C)C)CC(=O)N(C(C)C)[C@@H]2c2ccc(CO)cc2I)cc1
observed-measurement: 1.1

FYI, the data here is from PubChem BioAssay.
